Data credit: the Immune Epitope Database (IEDB)

Please provide measured pKd for the entries that follow.
# SYSTEM_TESTED: HLA-A*02:02
# RUN_DESCRIPTION: IEDB peptide-MHC binding, purified MHC/competitive/radioactivity; filed as Kd, often an IC50 or EC50 that approximates it; bounds were set here for any values at or beyond the usual limits of such assays
# APPLIED_CONDITIONS: source organism: Vaccinia virus WR
Answers are plain numbers, as −log10 of the molar value.

The examples below pair each entry with its known result.
SLKRFTHTT	6.08
IASSMKGENV	6.12
PAHLINKLL	5.17
MAGVEVRYI	6.53
NINFNNSSII	5.18

Below are 6 sequences. Give each one its pKd.
1. AMIHKTYIDV
2. KIILFQNNDI
3. ALYYVHSLL
4. KAKQLCYCPA
5. SIENKHQRRL
6. QIFNIISYI

output:
[6.47, 5.79, 7.58, 6.51, 4.77, 6.95]

List reported pKd for each of these sequences:
1. LLTHGADPNA
2. IAVANCVRNL
3. GLFDINVIGL
4. NTYLFNILY

output:
1: 5.02; 2: 7.24; 3: 9.79; 4: 5.80
